- PROTOCOL: Inhibition of reverse transcriptase E138K mutant in HIV-1 infected in human MT4 cells assessed as reduction in virus-induced cytopathic effect incubated for 5 days by MTT assay
Label t when EC50 is strictly below 100 nM; at or above that, label f.

The following compounds have reported results that may help.
Criterion: EC50 strictly below 100 nM. Is it met by Cc1cc(/C=C/C#N)cc(C)c1Oc1nc(Nc2ccc(N3CCCC(NS(N)(=O)=O)C3)cc2)nc2ccsc12 (stereo not drawn) ?
f

Could you please tell me whether EC50 recorded for `Cc1cc(/C=C/C#N)cc(C)c1Oc1nc(Nc2ccc(CN3CCN(S(N)(=O)=O)CC3)cc2)nc2sccc12` is less than 100 nM?
t

Regarding `Cc1cc(/C=C/C#N)cc(C)c1Oc1nc(Nc2ccc(N3CCN(S(C)(=O)=O)CC3)cc2)nc2ccsc12` , kindly confirm whether its EC50 is beneath 100 nM.
t

For this compound, is EC50 lower than 100 nM? Cc1cc(/C=C/C#N)cc(C)c1Oc1nc(Nc2ccc(N3CCCC(NS(N)(=O)=O)C3)cc2)nc2sccc12 (stereo not drawn)
f

Item Cc1cc(/C=C/C#N)cc(C)c1Oc1nc(Nc2ccc(N3CCCC(NS(C)(=O)=O)C3)cc2)nc2ccsc12 (stereo not drawn) : EC50 beneath 100 nM, strictly?
f

In the record for `Cc1cc(/C=C/C#N)cc(C)c1Oc1nc(Nc2ccc(N3CCN(S(N)(=O)=O)CC3)cc2)nc2sccc12` , is EC50 less than 100 nM?
t

More entries:
For this compound, is EC50 lower than 100 nM? `Cc1cc(/C=C/C#N)cc(C)c1Oc1nc(Nc2ccc(CN3CCN(S(C)(=O)=O)CC3)cc2)nc2ccsc12`
f

Please state whether EC50 is below 100 nM for `Cc1cc(/C=C/C#N)cc(C)c1Oc1nc(Nc2ccc(CN3CCN(S(N)(=O)=O)CC3)cc2)nc2ccsc12`
t

----------
- PROTOCOL: Inhibition of reverse transcriptase Y188L mutant in HIV-1 infected in human MT4 cells assessed as reduction in virus-induced cytopathic effect incubated for 5 days by MTT assay
Reported EC50 values for a set of compounds
The response must be a number in µM with no trailing unit.

Form field: reported EC50 of Cc1cc(/C=C/C#N)cc(C)c1Oc1nc(Nc2ccc(N3CCCC(NS(C)(=O)=O)C3)cc2)nc2ccsc12 (stereo unspecified)
150

What does the record list as EC50 for `Cc1cc(/C=C/C#N)cc(C)c1Oc1nc(Nc2ccc(N3CCN(S(N)(=O)=O)CC3)cc2)nc2sccc12` ?
10.1

Sample `Cc1cc(/C=C/C#N)cc(C)c1Oc1nc(Nc2ccc(CN3CCN(S(C)(=O)=O)CC3)cc2)nc2sccc12` — what was its EC50?
9.41

More entries:
Reported EC50 for `Cc1cc(/C=C/C#N)cc(C)c1Oc1nc(Nc2ccc(CN3CCN(S(N)(=O)=O)CC3)cc2)nc2ccsc12` : what is it?
0.544

Param item = `Cc1cc(/C=C/C#N)cc(C)c1Oc1nc(Nc2ccc(N3CCN(S(C)(=O)=O)CC3)cc2)nc2ccsc12` ; retrieve measured EC50.
5.11

Would you mind telling me what EC50 value was observed for Cc1cc(/C=C/C#N)cc(C)c1Oc1nc(Nc2ccc(N3CCCC(NS(N)(=O)=O)C3)cc2)nc2ccsc12 (stereo unspecified) ?
6.75

----------
- PROTOCOL: Inhibition of reverse transcriptase K103N mutant in HIV-1 infected in human MT4 cells assessed as reduction in virus-induced cytopathic effect incubated for 5 days by MTT assay
ATTRIBUTE_MEASURED: pEC50
When answering, recall that pEC50 equals minus log10 of the concentration in mol/L, and write that number alone.

Examples from the recorded data:
Need pEC50 of Cc1cc(/C=C/C#N)cc(C)c1Oc1nc(Nc2ccc(N3CCCC(NS(N)(=O)=O)C3)cc2)nc2ccsc12 (stereo not given) , thanks.
6.99

Record request: pEC50 value, item `Cc1cc(/C=C/C#N)cc(C)c1Oc1nc(Nc2ccc(N3CCN(S(C)(=O)=O)CC3)cc2)nc2ccsc12`
7.25

Return reported pEC50; argument: `Cc1cc(/C=C/C#N)cc(C)c1Oc1nc(Nc2ccc(CN3CCN(S(C)(=O)=O)CC3)cc2)nc2sccc12`
7.27

Need pEC50, item `Cc1cc(/C=C/C#N)cc(C)c1Oc1nc(Nc2ccc(CN3CCN(S(C)(=O)=O)CC3)cc2)nc2ccsc12`
6.45

Which pEC50 is listed for `Cc1cc(/C=C/C#N)cc(C)c1Oc1nc(Nc2ccc(N3CCN(S(N)(=O)=O)CC3)cc2)nc2ccsc12` ?
7.68

Further cases:
Can you look up the measured pEC50 of `Cc1cc(/C=C/C#N)cc(C)c1Oc1nc(Nc2ccc(N3CCN(S(C)(=O)=O)CC3)cc2)nc2sccc12` for me?
6.66

Consider the molecule shown here: `Cc1cc(/C=C/C#N)cc(C)c1Oc1nc(Nc2ccc(N3CCN(S(N)(=O)=O)CC3)cc2)nc2sccc12` What is its recorded pEC50?
7.51

Name the reported pEC50 value associated with the molecule `Cc1cc(/C=C/C#N)cc(C)c1Oc1nc(Nc2ccc(CN3CCN(S(N)(=O)=O)CC3)cc2)nc2sccc12`
8.15

What value of pEC50 has been recorded for this entry: Cc1cc(/C=C/C#N)cc(C)c1Oc1nc(Nc2ccc(N3CCCC(NS(C)(=O)=O)C3)cc2)nc2sccc12 (stereo not given)
5.87

For Cc1cc(/C=C/C#N)cc(C)c1Oc1nc(Nc2ccc(N3CCCC(NS(N)(=O)=O)C3)cc2)nc2sccc12 (stereo not given) , what is its reported pEC50?
6.35

----------
- PROTOCOL: Inhibition of reverse transcriptase E138K mutant in HIV-1 infected in human MT4 cells assessed as reduction in virus-induced cytopathic effect incubated for 5 days by MTT assay
Measured pEC50 accompanies every entry in the list below.
Quick note: pEC50 values are minus log10 of concentrations in mol/L.

If you can, please state the reported pEC50 value of `Cc1cc(/C=C/C#N)cc(C)c1Oc1nc(Nc2ccc(CN3CCN(S(C)(=O)=O)CC3)cc2)nc2sccc12` .
6.79

Endpoint output: pEC50 of `Cc1cc(/C=C/C#N)cc(C)c1Oc1nc(Nc2ccc(N3CCN(S(C)(=O)=O)CC3)cc2)nc2sccc12` . Value?
6.39

What does the data say about its pEC50? Entry: Cc1cc(/C=C/C#N)cc(C)c1Oc1nc(Nc2ccc(N3CCCC(NS(C)(=O)=O)C3)cc2)nc2sccc12 (centres undefined)
5.37

I would be grateful if you could share the reported pEC50 for `Cc1cc(/C=C/C#N)cc(C)c1Oc1nc(Nc2ccc(N3CCN(S(N)(=O)=O)CC3)cc2)nc2ccsc12` .
7.37

----------
Below, each entry is listed alongside its reported EC50.
- PROTOCOL: Inhibition of reverse transcriptase F227L/V106A double mutant in HIV-1 infected in human MT4 cells assessed as reduction in virus-induced cytopathic effect incubated for 5 days by MTT assay
Report only the number, with the unit nM understood.

Some solved cases for reference:
Name the recorded EC50 for `Cc1cc(/C=C/C#N)cc(C)c1Oc1nc(Nc2ccc(CN3CCN(S(C)(=O)=O)CC3)cc2)nc2sccc12` .
1640

Report EC50 for `Cc1cc(/C=C/C#N)cc(C)c1Oc1nc(Nc2ccc(N3CCN(S(C)(=O)=O)CC3)cc2)nc2ccsc12` please.
285

Return reported EC50; argument: `Cc1cc(/C=C/C#N)cc(C)c1Oc1nc(Nc2ccc(N3CCN(S(N)(=O)=O)CC3)cc2)nc2sccc12`
331

If you can, please state the reported EC50 value of `Cc1cc(/C=C/C#N)cc(C)c1Oc1nc(Nc2ccc(N3CCN(S(C)(=O)=O)CC3)cc2)nc2sccc12` .
1950

# lookup: EC50 of Cc1cc(/C=C/C#N)cc(C)c1Oc1nc(Nc2ccc(N3CCCC(NS(N)(=O)=O)C3)cc2)nc2sccc12 (stereo unspecified)
3640

Continuing:
What value of EC50 has been recorded for this entry: Cc1cc(/C=C/C#N)cc(C)c1Oc1nc(Nc2ccc(N3CCCC(NS(C)(=O)=O)C3)cc2)nc2ccsc12 (stereo unspecified)
16800

Requested read-out: EC50. Entry: Cc1cc(/C=C/C#N)cc(C)c1Oc1nc(Nc2ccc(N3CCCC(NS(N)(=O)=O)C3)cc2)nc2ccsc12 (stereo unspecified)
381

Quick check: EC50 of `Cc1cc(/C=C/C#N)cc(C)c1Oc1nc(Nc2ccc(CN3CCN(S(C)(=O)=O)CC3)cc2)nc2ccsc12` ?
2200

EC50 lookup needed for `Cc1cc(/C=C/C#N)cc(C)c1Oc1nc(Nc2ccc(N3CCN(S(N)(=O)=O)CC3)cc2)nc2ccsc12` , thanks.
203

Which measured EC50 value corresponds to `Cc1cc(/C=C/C#N)cc(C)c1Oc1nc(Nc2ccc(CN3CCN(S(N)(=O)=O)CC3)cc2)nc2sccc12` ?
369

Which measured EC50 value corresponds to `Cc1cc(/C=C/C#N)cc(C)c1Oc1nc(Nc2ccc(CN3CCN(S(N)(=O)=O)CC3)cc2)nc2ccsc12` ?
175
